# koff per entry
ASSAY SYSTEM: T1, mouse leptin receptor-Fc chimera (mouse; human, UniProt P48356 22-839)
T1 construct: extracellular domain; Bought from R&D Systems; Captured on a protein G sensor chip through its Fc; also called ObR-Fc; chimera leptin receptor; not shown: human Fc fragment, printed as 'human protein G Fc fragment'
T1 sequence (looked up): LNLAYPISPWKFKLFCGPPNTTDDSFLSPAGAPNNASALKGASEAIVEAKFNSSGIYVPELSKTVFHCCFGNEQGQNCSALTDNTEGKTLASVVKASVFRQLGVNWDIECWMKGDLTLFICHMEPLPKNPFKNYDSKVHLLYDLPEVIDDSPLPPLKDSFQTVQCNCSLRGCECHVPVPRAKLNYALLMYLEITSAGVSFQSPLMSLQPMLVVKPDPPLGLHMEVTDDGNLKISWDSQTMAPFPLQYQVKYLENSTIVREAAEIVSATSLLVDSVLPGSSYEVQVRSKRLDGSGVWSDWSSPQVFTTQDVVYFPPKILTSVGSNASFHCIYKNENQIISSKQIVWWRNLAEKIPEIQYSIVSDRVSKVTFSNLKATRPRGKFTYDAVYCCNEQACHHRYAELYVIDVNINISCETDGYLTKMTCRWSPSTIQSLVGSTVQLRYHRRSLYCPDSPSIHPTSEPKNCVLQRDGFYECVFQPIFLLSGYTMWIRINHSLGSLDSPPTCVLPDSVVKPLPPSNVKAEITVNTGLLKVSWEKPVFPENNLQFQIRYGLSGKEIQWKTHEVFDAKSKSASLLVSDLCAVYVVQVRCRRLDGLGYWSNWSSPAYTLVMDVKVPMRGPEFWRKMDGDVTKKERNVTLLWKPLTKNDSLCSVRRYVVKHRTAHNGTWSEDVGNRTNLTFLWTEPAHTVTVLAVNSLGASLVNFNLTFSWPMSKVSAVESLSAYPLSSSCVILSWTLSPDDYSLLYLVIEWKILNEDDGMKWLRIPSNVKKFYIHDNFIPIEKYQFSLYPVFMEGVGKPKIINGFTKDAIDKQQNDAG
ASSAY NOTES: SPR (Biacore 3000), ObR-Fc captured on protein G chip, 1:1 model
Number only, in s⁻¹; omit the unit.

Examples with answers:
Lep-(ss)-P85(1) (ligand, mouse, UniProt P41160 22-167, looked up, Pluronic P85 chains on lysine amino groups through the DSP (disulfide) linker; highly modified; positions not determined, Mixture of unmodified leptin and leptin with 1 to several P85 chains) VPIQKVQDDTKTLIKTIVTRINDISHTQSVSAKQRVTGLDFIPGLHPILSLSKMDQTLAVYQQVLTSLPSQNVLQIANDLENLRDLLHLLAFSKSCSLPQTSGLQKPESLDGVLEASLYSTEVVALSRLQGSLQDILQQLDVSPEC | 0.000642
Lep-(nc)-P85(2) (ligand, mouse, UniProt P41160 22-167, looked up, one Pluronic P85 chain on the N-terminal alpha amino group by reductive amination with mono-aldehyde-P85, the rest is unmodified leptin; also called N-terminal modified Lep-(nc)-P85(2)) VPIQKVQDDTKTLIKTIVTRINDISHTQSVSAKQRVTGLDFIPGLHPILSLSKMDQTLAVYQQVLTSLPSQNVLQIANDLENLRDLLHLLAFSKSCSLPQTSGLQKPESLDGVLEASLYSTEVVALSRLQGSLQDILQQLDVSPEC | 0.000247

Suppose we examine the binder Lep-(ss)-P85(2.1) reduced (ligand, mouse, UniProt P41160 22-167, looked up, Pluronic P85 chains on lysine amino groups through the DSP linker, partly cleaved by 6 mM L-glutathione, Lep-(ss)-P85(2.1) dialysed against 6 mM L-glutathione in PBS with 20% ethanol; also called reduced form of Lep-(ss)-P85(2.1)) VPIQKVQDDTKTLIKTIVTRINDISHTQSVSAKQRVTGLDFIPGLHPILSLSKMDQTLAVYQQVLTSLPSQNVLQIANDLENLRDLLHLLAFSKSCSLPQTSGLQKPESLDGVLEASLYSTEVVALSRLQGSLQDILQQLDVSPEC ; what koff value has been reported? 0.000407

Suppose we examine the binder Lep-(ss)-P85(2.3), 33 min (ligand, mouse, UniProt P41160 22-167, looked up, one Pluronic P85 chain on a lysine amino group through the DSP (disulfide) linker; position not determined, HIC fraction collected at 33 min, said to contain leptin modified with one P85 chain; also called Lep-(ss)-P85(2.3) purified by HIC (33 minutes); HIC-purified Lep-(ss)-P85(2.3)) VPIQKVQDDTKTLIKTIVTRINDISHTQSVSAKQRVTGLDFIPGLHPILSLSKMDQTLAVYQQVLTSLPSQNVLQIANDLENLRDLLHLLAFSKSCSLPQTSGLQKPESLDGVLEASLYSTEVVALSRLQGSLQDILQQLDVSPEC ; what koff value has been reported? 0.000292

Suppose we examine the binder Mouse leptin (ligand, UniProt P41160 22-167, looked up, Also tested as a non-covalent 1:1 mixture with free Pluronic P85 ('Leptin + P85'); Those rows use this molecule and name the mixture under assay; The preparation held monomer and dimer on SDS-PAGE; also called native leptin; mu-leptin) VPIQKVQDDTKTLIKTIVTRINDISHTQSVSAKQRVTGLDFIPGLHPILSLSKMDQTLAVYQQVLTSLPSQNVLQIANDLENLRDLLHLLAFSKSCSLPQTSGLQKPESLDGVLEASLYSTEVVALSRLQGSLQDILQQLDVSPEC ; what koff value has been reported? 0.000208

Suppose we examine the binder Lep-(ss)-P85(2.1) (ligand, mouse, UniProt P41160 22-167, looked up, Pluronic P85 chains on lysine amino groups through the DSP (disulfide) linker; lower degree of modification; positions not determined, Mixture that includes unmodified leptin) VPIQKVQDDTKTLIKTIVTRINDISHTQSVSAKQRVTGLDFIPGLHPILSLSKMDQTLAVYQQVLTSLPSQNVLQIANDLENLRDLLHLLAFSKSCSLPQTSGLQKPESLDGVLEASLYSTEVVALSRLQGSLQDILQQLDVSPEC ; what koff value has been reported? 0.000355

Suppose we examine the binder Lep-(ss)-P85(1) reduced (ligand, mouse, UniProt P41160 22-167, looked up, Pluronic P85 chains on lysine amino groups through the DSP linker, partly cleaved by 6 mM L-glutathione; a linker remainder is left on cleaved sites, Lep-(ss)-P85(1) dialysed against 6 mM L-glutathione in PBS with 20% ethanol; Some but not all P85 chains were cleaved; also called reduced form of Lep-(ss)-P85(1)) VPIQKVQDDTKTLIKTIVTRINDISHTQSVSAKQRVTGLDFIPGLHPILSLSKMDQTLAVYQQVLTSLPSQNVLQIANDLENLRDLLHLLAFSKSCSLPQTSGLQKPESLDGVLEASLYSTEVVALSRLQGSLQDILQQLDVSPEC ; what koff value has been reported? 0.00079
